Where do the numbers come from? From patent US20200270125A1.

# tgt: T1, human MASP-3 (construct not stated) (human)
# T1 construct: also called MASP-3 antigen
# T1 chain: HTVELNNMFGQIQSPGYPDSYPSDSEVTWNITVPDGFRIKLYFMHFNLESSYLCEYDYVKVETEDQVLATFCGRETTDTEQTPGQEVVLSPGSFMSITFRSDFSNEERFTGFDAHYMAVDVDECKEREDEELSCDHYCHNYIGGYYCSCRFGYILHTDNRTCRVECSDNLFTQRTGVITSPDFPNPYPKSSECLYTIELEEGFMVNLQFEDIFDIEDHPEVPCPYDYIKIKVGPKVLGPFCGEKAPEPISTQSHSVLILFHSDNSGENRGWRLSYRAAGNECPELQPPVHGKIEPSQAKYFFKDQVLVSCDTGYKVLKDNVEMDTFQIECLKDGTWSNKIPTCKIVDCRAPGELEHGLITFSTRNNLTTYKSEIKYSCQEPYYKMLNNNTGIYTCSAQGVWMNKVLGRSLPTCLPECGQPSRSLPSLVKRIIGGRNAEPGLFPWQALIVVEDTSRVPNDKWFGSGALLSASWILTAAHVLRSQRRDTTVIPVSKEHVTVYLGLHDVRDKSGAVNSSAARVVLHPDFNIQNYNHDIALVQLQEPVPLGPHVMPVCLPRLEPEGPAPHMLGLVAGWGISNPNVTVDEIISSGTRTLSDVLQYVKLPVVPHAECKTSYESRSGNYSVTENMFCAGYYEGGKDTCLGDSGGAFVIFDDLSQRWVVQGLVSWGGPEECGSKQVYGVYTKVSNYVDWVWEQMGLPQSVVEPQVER
# assay_remarks: not described at this place
Readings of binding affinity for the listed binders

binder	binding affinity
MASP-3 mAb 4D5 (mouse-human chimeric IgG4) (antibody, V domains shown) VH: QVQLKQSGPELVKPGASVKLSCKASGYTFTTDDINWVKQRPGQGLEWIGWIYPRDDRTKYNDKFKDKATLTVDTSSNTAYMDLHSLTSEDSAVYFCSSLEDTYWGQGTLVAVSS VL: DIVMTQSPSSLAVSAGEKVTMTCKSSQSLLNSRTRKNYLAWYQQKPGQSPKLLIYWASTRESGVPDRFTGSGSGTDFSLTISSVQAEDLAVYYCKQSYNLYTFGGGTKLEIKR	≤ 500 pM

// next entry
Exercise: Please report binding affinity for the following binder: MASP-3 mAb 11B6 (mouse-human chimeric IgG4) (antibody, V domains shown) VH: QVQLKQSGAELVKPGASVKMSCKASGYTFTTYPIEWMKQNHGKSLEWIGNFHPYNGDSKYNEKFKGKATLTVEKSSSTVYLELSRLPSADSAIYYCARRHYAASPWFAHWGQGTLVTVSS VL: DIVMTQSQKFMSTSVGDRVNVTCKASQNVGPTVAWYQQKPGQSPKALIYSASYRYSGVPDRFTGSGSGTDFTLTISNVHSEDLAEYFCQQYNSYPFTFGSGTKLEIKR
Solution: ≤ 500 pM
